Data provenance is ChEMBL document CHEMBL3272213.

# System: Mus musculus
# Test Summary: Anxiolytic activity in ip dosed male albino CF-1 mouse assessed as inhibition of strychnine-induced lethality
# Type: functional
# Condition Label: CF-1, ip
Measure Name: ED50

Some compounds with recorded ED50:
Cc1nc(CN(C)C)n(-c2ccc(Cl)cc2C(=O)c2ccccc2Cl)c1CO; > 25 mg/kg
CN(C)Cc1nnc(-c2ccncc2)n1-c1ccc(Cl)cc1C(=O)c1ccccc1Cl; > 50 mg/kg

Please examine the following record next.
Write down ED50 measured for item CN(C)Cc1nccn1-c1ccc(Cl)cc1C(=O)c1ccccc1Cl > 50 mg/kg

----------
# Tested on: Mus musculus
# Test Summary: Anxiolytic activity in ip dosed male albino CF-1 mouse assessed as inhibition of nicotine-induced tonic extensor convulsions
# Assay type: functional
# Condition Label: Mus musculus, CF-1, ip; read-out: ED50
Reported ED50 values are given for each entry in this list.
Numbers only; they are read as mg/kg.

Cc1nnc(CN)n1-c1ccc(Cl)cc1C(O)c1ccccc1 (stereo not drawn); 1.6
CCNCc1nnc(C)n1-c1ccc(Cl)cc1C(=O)c1ccccc1; 0.2

Identify measured ED50 obtained with Mus musculus for CN(C)Cc1nnc(-c2ccco2)n1-c1ccc(Cl)cc1C(=O)c1ccccc1 . 16

Provide ED50, tested on Mus musculus, for Cc1nnc2n1-c1ccc(Cl)cc1C(c1ccccc1Cl)=NC2 . 0.013

Retrieve ED50 on Mus musculus; query Cc1nnc(CN2CCOCC2)n1-c1ccc(Cl)cc1C(=O)c1ccccc1 0.45

Give ED50 only, for Cc1nnc(CN(C)C)n1-c1ccc(Cl)cc1C(=O)c1ccccc1 , using Mus musculus data. 0.5

Report ED50 under test system Mus musculus for CNCc1nnc(C)n1-c1ccc(Cl)cc1C(=O)c1ccccc1 . 0.1

Please look at CN1C(=O)CN=C(c2ccccc2)c2cc(Cl)ccc21 and tell me its recorded ED50 on Mus musculus. 0.11
